Assignment: determine reported pKd for the given binders.
TGT: T1, recombinant human ZNRF3 extracellular domain (human, UniProt Q9ULT6 56-219)
T1 construct: extracellular domain; also called huZNRF3; human ZNRF3 ECD
T1 sequence (looked up): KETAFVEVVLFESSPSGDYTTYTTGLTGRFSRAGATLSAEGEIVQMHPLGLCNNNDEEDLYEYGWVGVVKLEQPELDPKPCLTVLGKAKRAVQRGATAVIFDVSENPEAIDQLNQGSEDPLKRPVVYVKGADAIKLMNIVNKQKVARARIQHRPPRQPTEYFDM
ASSAY NOTES: SPR Biacore 8K; antibody captured on Protein A; ZNRF3 ECD analyte; 25 C
// pKd is dimensionless: -log10 of concentration (M)

Lookup: Any idea what pKd was measured for ZNRF3-171 (antibody, V domains shown, Rat clone; VH/VL only) VH: QVQLHQSGTELARPGTSVKLSCKASGYTFSRFYINWVKKRPGQGLEWIGYIDPGNGGTFHSEKFKDKASLTADTSSSTAYMVLGSLAPEDSAFYFCVRGYYSSYDWFAYWGQGTLVTVSS VL: DIQLTQSPSSMSASLGDRVSLTCQSSQGIGNYLSWYQHKPGEPPKPILYYATNLADGVPSRFSGSRSGSDYSLTISSLESEDTAIYYCLQYDEYPYTFGPGTKLELR ?
Found: 9.00

Lookup: Look up pKd: ZNRF3-279 (antibody, V domains shown, Rat clone; VH/VL only) VH: QVQLQQSGAELVKPGTSVRLSCKASGYTFTHNHMNWIKQTTGQGLEWIGIINPGSGGTNYNVRFKGKATLTVDTSSSTAFMQLSSLTPEDSAVYYCARNLITIAGPFAYWGQGTLVTVSS VL: DTVLTQSPALTVSPGERVSISCRASEGVSSYIHWYQQKPGQQPKLLIYKASNLASGVPARFSGSGSGTDFTLTIDPVEADDTATYFCQQSWIDHTFGTGTKLELK
Found: 8.78

Lookup: I have this binder here, ZNRF3-163 (antibody, V domains shown, Rat clone; VH/VL only) VH: EVQLEESGGGLVQPGRSMKFSCAASGFTFSNYYMAWVRQAPSKGLEWVASISTGGGDVYYRDSVKGRFTISRDNAKSTLYLQMDSLRSEDTATYYCARHSGGRIRARGHYFDYWGQGVMVTVSS VL: DIQMTQSPASLSASLGETVSIECLASEDISNDLAWYQQKSGKSPQVLIYGVSRLQDGVPSRFSGSGSGTRYSLKISGMQPEDEADYFCQQSYKYPYTFGAGTKLELK , and I need its recorded pKd.
Found: 9.21
